- assay_comment: Stability of (7aS,2′S)-2-oxo-clopidogrel in plasma, screening of TCEP dosage (Example 4)
- Type: in vitro ADME
- condition_info: plasma, TCEP 50 mg/ml; theoretical 12.0 ng/mL; room temperature; 60 min; read-out: Recovery rate

| substance_smiles | recovery at 60 min, 12 ng/mL [%] |
| --- | --- |
| COC(=O)[C@H](c1ccccc1Cl)N1CC[C@@H]2SC(=O)C=C2C1 | 99.2 |

---

- assay_comment: Stability of (7aS,2′S)-2-oxo-clopidogrel in plasma, screening of TCEP dosage (Example 4)
- Assay type: in vitro ADME
- condition_info: plasma, TCEP 100 mg/ml; theoretical 0.1 ng/mL; room temperature; 60 min; read-out: Recovery rate
metric_name: recovery at 60 min, 0.1 ng/mL (%)

| substance_smiles | assay_result |
| --- | --- |
| COC(=O)[C@H](c1ccccc1Cl)N1CC[C@@H]2SC(=O)C=C2C1 | 93.4 |

---

- assay_comment: Stability of (7aS,2′S)-2-oxo-clopidogrel in plasma at −80° C., screening of reducing agent type (Example 5)
- Assay type: in vitro ADME
- condition_info: blank plasma containing ME 100 mg/ml, ME 100 mg/ml, theoretical 0.1 ng/mL, day 10, read-out: Recovery rate

| substance_smiles | recovery at 10 day, 0.1 ng/mL |
| --- | --- |
| COC(=O)[C@H](c1ccccc1Cl)N1CC[C@@H]2SC(=O)C=C2C1 | 101% |

---

- assay_comment: Stability of (7aS,2′S)-2-oxo-clopidogrel in plasma at −80° C., screening of reducing agent type (Example 5)
- Type: in vitro ADME
- condition_info: blank plasma containing ME 100 mg/ml, ME 100 mg/ml, theoretical 0.1 ng/mL, day 30, read-out: Recovery rate

| substance_smiles | recovery at 30 day, 0.1 ng/mL [%] |
| --- | --- |
| COC(=O)[C@H](c1ccccc1Cl)N1CC[C@@H]2SC(=O)C=C2C1 | 91.5 |

---

- assay_comment: Stability of (7aS,2′S)-2-oxo-clopidogrel in plasma, screening of TCEP dosage (Example 4)
- Format: in vitro ADME
- condition_info: plasma, TCEP 100 mg/ml; theoretical 0.1 ng/mL; on ice; 60 min; read-out: Recovery rate
metric_name: recovery at 60 min, 0.1 ng/mL

| substance_smiles | assay_result |
| --- | --- |
| COC(=O)[C@H](c1ccccc1Cl)N1CC[C@@H]2SC(=O)C=C2C1 | 94.2% |

---

- assay_comment: Stability of (7aS,2′S)-2-oxo-clopidogrel in plasma, screening of TCEP dosage (Example 4)
- Assay type: in vitro ADME
- condition_info: plasma containing TCEP 10 mg/ml, TCEP 10 mg/ml; theoretical 0.1 ng/mL; room temperature; 60 min; read-out: Recovery rate

| substance_smiles | recovery at 60 min, 0.1 ng/mL [%] |
| --- | --- |
| COC(=O)[C@H](c1ccccc1Cl)N1CC[C@@H]2SC(=O)C=C2C1 | 83.3 |
